The measurements presented in this section are drawn from paper PMC4336329.

# ASSAY_SYSTEM: human ether-à-go-go-related gene (hERG) potassium channel (human, UniProt Q12809);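 further: peak tail current of the secondary pulse compared with the same well before compound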
# Sequence (Q12809 whole entry, looked up): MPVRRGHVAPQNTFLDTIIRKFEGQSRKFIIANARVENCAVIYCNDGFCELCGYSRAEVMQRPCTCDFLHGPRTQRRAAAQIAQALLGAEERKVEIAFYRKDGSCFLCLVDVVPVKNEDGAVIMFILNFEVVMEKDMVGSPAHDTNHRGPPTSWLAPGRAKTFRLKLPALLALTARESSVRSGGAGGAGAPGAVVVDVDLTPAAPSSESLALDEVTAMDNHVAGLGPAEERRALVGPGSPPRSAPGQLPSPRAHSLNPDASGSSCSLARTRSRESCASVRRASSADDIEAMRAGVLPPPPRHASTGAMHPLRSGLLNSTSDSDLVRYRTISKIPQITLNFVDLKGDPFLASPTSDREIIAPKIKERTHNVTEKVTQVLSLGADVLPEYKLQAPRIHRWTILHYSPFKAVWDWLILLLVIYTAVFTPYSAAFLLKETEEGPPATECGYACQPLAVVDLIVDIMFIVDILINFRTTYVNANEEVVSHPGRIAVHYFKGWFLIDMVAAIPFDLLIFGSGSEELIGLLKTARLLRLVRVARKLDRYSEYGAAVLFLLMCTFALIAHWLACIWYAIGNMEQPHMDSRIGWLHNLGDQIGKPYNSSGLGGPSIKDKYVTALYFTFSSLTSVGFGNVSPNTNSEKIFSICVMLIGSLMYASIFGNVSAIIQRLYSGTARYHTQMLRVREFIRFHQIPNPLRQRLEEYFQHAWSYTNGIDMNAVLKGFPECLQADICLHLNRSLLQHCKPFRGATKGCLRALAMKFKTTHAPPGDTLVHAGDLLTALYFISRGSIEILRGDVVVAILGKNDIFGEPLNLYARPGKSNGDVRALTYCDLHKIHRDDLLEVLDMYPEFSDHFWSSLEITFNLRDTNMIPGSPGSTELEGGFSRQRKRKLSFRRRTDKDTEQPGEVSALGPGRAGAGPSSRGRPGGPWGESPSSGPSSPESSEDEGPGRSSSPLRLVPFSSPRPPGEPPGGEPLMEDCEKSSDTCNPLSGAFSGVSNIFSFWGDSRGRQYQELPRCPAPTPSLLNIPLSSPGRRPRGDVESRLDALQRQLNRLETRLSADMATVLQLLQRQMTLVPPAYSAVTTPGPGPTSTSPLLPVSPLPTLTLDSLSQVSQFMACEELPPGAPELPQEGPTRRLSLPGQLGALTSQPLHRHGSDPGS
# EXPERIMENTAL_PROTOCOL: primary screen, population patch clamp on CHO cells stably expressing hERG; higher = less effect of the substance
Hit rate of the full screen: of about 310,000 compounds, about 14,000 (4.5%) showed an effect of 50% or more. The effect is printed as a negative number. This is one part of a sample in which strong results are shown more often than they occur.
PROPERTY_MEASURED: hERG current change (%, negative = inhibition) at 10uM (%)
Numbers only, in %.

> print(dat)
                                 smiles.str  value
1           Cc1ccc(C(C)(C)C)c(OCCN2CCCC2)c1  -19.5
2  COc1cc(-c2nc(S(=O)(=O)c3ccc(Cl)cc3)c(N3CCOCC3)o2)cc(OC)c1OC  -3.17
3  O=C(Nc1nnc(-c2ccccc2Cl)s1)C1CCN(S(=O)(=O)c2ccc(Cl)cc2)CC1   28.1

Quick request: hERG current change (%, negative = inhibition) at 10uM for each listed item, please.
1. COc1ccc(/C=N\NC(=O)c2cc(O)c(O)c(O)c2)cc1COc1ccc(C(=O)OCC(C)C)cc1
2. Cc1cc(N2CCN(Cc3cn(C)nc3-c3ccccc3F)CC2)cc(C)n1
3. Cc1cc(/C=C2/C(=O)N(C)C(=S)N2C)ccc1N1CCCC1

1: 21; 2: -35; 3: 7.27

###

What hERG current change (%, negative = inhibition) at 10uM was measured for each of the following?
# ASSAY_SYSTEM: human ether-à-go-go-related gene (hERG) potassium channel (human, UniProt Q12809);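 further: peak tail current of the secondary pulse compared with the same well before compound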
# EXPERIMENTAL_PROTOCOL: primary screen, population patch clamp on CHO cells stably expressing hERG; higher = less effect of the substance
Out of some 310,000 compounds screened, about 14,000 (4.5%) showed an effect of 50% or more. Effects have a minus sign here. This is one part of a sample in which strong results are shown more often than they occur.
Numbers only, in %.

> print(dat)
                                   molecule                              assay.system  value
1  Cc1nc2ncnn2c(N2CCN(C(c3ccccc3)c3ccccc3)CC2)c1C  human ether-à-go-go-related gene (hERG) potassium channel (human, UniProt Q12809)  -47.7

Quick request: hERG current change (%, negative = inhibition) at 10uM for each listed item, please.
1. Cc1ccc2nc(-c3ccc(N4C(=NC(=O)CCC(=O)O)SC5CS(=O)(=O)CC54)cc3)sc2c1 (stereo not shown)
2. COc1ccc(C2C(C#N)=C(C)NC3=C2S(=O)(=O)c2ccccc23)cc1 (stereo not shown)
3. CC(C)(C)NC(=O)NC(=O)C[n+]1ccc(Cc2ccc([N+](=O)[O-])cc2)cc1.[Cl-]
4. CCCOc1ccc(C(C)=O)cc1CC(C(=O)OCC)C(=O)OCC
5. Cc1cc(C)nc(N2CCCC(CCC(=O)NCc3ccc(F)c(F)c3)C2)n1 (stereo not shown)
6. Cc1noc(C)c1C(=O)Nc1nc2ccc(S(C)(=O)=O)cc2s1

1: -19.3; 2: -38.6; 3: -5.27; 4: 1.47; 5: -1.25; 6: 2.86

###

What hERG current change (%, negative = inhibition) at 10uM was measured for each of the following?
# ASSAY_SYSTEM: human ether-à-go-go-related gene (hERG) potassium channel (human);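 further: peak tail current of the secondary pulse compared with the same well before compound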
# EXPERIMENTAL_PROTOCOL: primary screen, population patch clamp on CHO cells stably expressing hERG; higher = less effect of the substance
About 14,000 (4.5%) of roughly 310,000 compounds showed an effect of 50% or more. Effects have a minus sign here. The sample as a whole holds a higher share of strong results than the screen did.
One number for each entry, in %.

> print(dat)
                                   compound  value
1  Cc1ccc(S(=O)(=O)N2CCN(C(=O)CSc3ccccn3)CC2)c(C)c1  -26.5
2  CN(Cc1c(C(=O)N/N=C/c2cccc(O)c2)nnn1-c1nonc1N)C1CCCCC1  -2.25
3  CN(C)S(=O)(=O)N1CCC(C(=O)O)(c2ccccc2)CC1   18.7
4          O=C(CSc1nnc(Cc2ccsc2)o1)c1ccccc1  -16.7

Shift focus to the following entry.
Measured hERG current change (%, negative = inhibition) at 10uM, COc1ccc(CN(C)C(=O)C(Cc2ccccc2)NC(=O)c2ccccc2)c(OC)c1 (centres unmarked) : -13.5
